Data origin, for the record: the nanobody polyreactivity screen of Harvey et al. (2022)

Experiment: yeast display, Sf9 membrane polyspecificity reagent, FACS + sequencing; frameworks hold sequencing errors
result type: polyreactivity (PSR sort gate)

The examples below pair each entry with its known result.
// query State the recorded polyreactivity (PSR sort gate) for this entry: QVQLVESGGGLVQAGGSLRLSCAASGSIFYYNAMGWYRQAPGKERELVAAISSSGGSTYYADSVKGRFTISRDNAKNTVYLQMNSLKPEDTAVYYCAAKLRHWAHHTKYDYWGQGTQVTVSS
// result low polyreactivity

// query Then QVQLVESGGGLVQAGGSLRLSCAASGSIFRWNAMGWYRQAPGKERELVAAISKSGGRRYYADSVKGRFTISRDNAKNTVYLQMNSVKPEDTAVYYCAAGYTTTQYYGPQYDYWGQGTQVTVSS ?
// result high polyreactivity

// query Then QVQLVESGGGLVQAGGSLRLSCAASGIILYPYAMGWYRQAPGKERELVAAISWSGGSTYYADSVKGRFTISRDNAKNTVYLQMNSLKPEDTAVYYCAARPRRRYYGYDSWGQGTQVTVSS ?
// result high polyreactivity

// query Then QVQLVESGGGLVQAGGSLRLSCAASGSTFDINAMGWYRQAPGKERHLVAAITYDTTTTYYADSVKGRFTISRDNAKNTVYLLMNSLKPEDTAVYYCAVEGLLGDTTYVQGYPYWYNYWGQGTQVTVSS ?
// result low polyreactivity

// query Then QVQLVESGGGLVQAGGSLRLSCAASGSTFDYYAMGWYRQAPGKERELVGVISSSGGSTYYADSVKGGFTISRDNAKNTVYLQMNSLKPEDTAVYYCAALYRNYGSSYAYYYWGQGTQVTVSS ?
// result low polyreactivity

// query Then QVQLVESGGGLVQAGGSLRLSCAASGRNFGVYTMGWYRQAPGKERELVAAITSGGNTNYADSVKGRFTISRDNAKNNVYLQMNCLKPEDTAVYYCAARYVGNFYYPGHNYWGQVTQVTVSS ?
// result low polyreactivity

// query Then QVQLVESGGGLVQAGGSLRLSCAASGSIFVDYAMGWYRQAPGKERELVAAITSTGSTTYADSVKGRFTISRDNAKNTVYLQMNSLKPEDTAVYYCAASFRWYGTVRYPYEMYYWGQGTQVTVSS ?
// result low polyreactivity

// query Then QVQLVESGGGLVQAGGRLRLSCAASGSTFGANAMGWYRQAPGKEREFVAAISRSGVRTYYADSVKGRFTISRDNAKNTVFLQMNSLKPEDTAVYYCAADGYWWTDTRYDYCGQGTQVTVSS ?
// result low polyreactivity

Would you mind listing polyreactivity (PSR sort gate) for each of the following sequences?
1. QVQLQESGGGLVQAGGSLRPRCAAGGTIFVSVNRGWYRHAPGEEREFVASITQGATTNYADSLIGRFTISRDNAKNTVYLQMNCQKPEDTAVYYCAVHESGGITFTYWGQGTQVTVSS
2. QVQLVESGGGLVQAGGSLRLSCAASGRIFSIYAMGWYRQAPGKERELVAAISSRGGSTYYADSVKGRFTISRDNAKNTVYLQMNSLKPEDTAVYYCNAVSWEGYDFDYWGQGTQVTVSS
3. QVQLVESAGGLVQAGGSLRLMCAASGNTLSWYALGWYRQAPGKERELVAVITSGGSTNYADSVKGRFTISRDYAKNTVYLQMNSLKPEDTAVYYCNRRPYGFDEFDYWGQGTQVTVSS
4. QVQLVESGGGLVQAGGSLRLSCAASGRTFGRYAMGWSRQAPGKERELVAAIRYTGGSTYADSVKGRFTISRDNAKNTVYLQMNSLKPEDTAVYYCAVLFYNNFGYWGQGTQVTVSS

// result
1. high polyreactivity
2. high polyreactivity
3. low polyreactivity
4. low polyreactivity

---

Experiment: yeast display, Sf9 membrane polyspecificity reagent, FACS + sequencing; frameworks hold sequencing errors
result type: polyreactivity (PSR sort gate)

The examples below pair each entry with its known result.
// query State the recorded polyreactivity (PSR sort gate) for this entry: QVQLVESGGGLVQAGGSLRISCAASGSIFSYYAMGWYRQAPGTERELVAAITRGGTTYYADSVKGRFTISRDNAKNTVYLQMNSLKPEDTAVYYCAVYYYSGTAGYRYGYWGQGTQVTVSS
// result high polyreactivity

// query Then QVQLVESGGGLVQAGGSLRLSSAASGSIFTYYAMGWYRQAPGKERELLASISRHGGSTYYADSVKGRFTISRDNAKNTVYLQMNSLKPEDTAVYYCNARGWHTKVVSPRYYWGQGTQVTVSS ?
// result high polyreactivity

// query Then QVQLVESGGGLVHAGGSLRLSCAASGSIFDWNAMGWYTQAPGKERELVATISWDGGSTYYADSVKGRFTISRDNAKNTVYLQMNSLKPEDTAVYYCATVFTGKPAFYARTKYDYWGQRTQVTVSS ?
// result low polyreactivity

// query Then QVQLEESGGGLVQAGGSLRLSCAASGRIFGGYAMGWYRQAPGKERELVAAISRNGGNTYYADSVKGRFTISRDNAKNTVYLQMNSLKPEDTAVYYCAATYDGTYDYWGQGTQVTVSS ?
// result high polyreactivity

// query Then QVQLVESGGGLVQAGGSLRLSCAASGRTFYYYAMGWYRQAPGKERELVAAISWSGGRTYYADSVKGRFTISRDNAKNTFYLQMNSMNPEDTAVYYCAADKYYSEFDYWGQGTQVTVSS ?
// result low polyreactivity

// query Then QVQLVESGGGLVQAGGSLRISCAASGSTFWGYAMGWYRQAPGKERELVATINQSAGSTYYADSVKGRFTISRDNAKNTVYLQMNSLKPEDTAVYYCAAEARVQFSYDYWGQGTQVTVSS ?
// result low polyreactivity

// query Then QVQLVESGGGLVQAGGSLRLSCAASGFTFATNAMGWYTPAPGKERELVAVISSGGSTYYADSVKGLFTISRDNAKNTVYLQMNRLKPEDTAVYYCNAGRKVRGALDGYDYWGQGTQVTVSS ?
// result high polyreactivity

// query Then QVQLVESGGGLVQAGGSLRLSCAASGITFYGYAMGWYRPAPGKERELVAVITSTARTNYADSVNGRFTISRDNAKNTVYLQMNSLKPEDTAVYYCAAVHSSYSFNYWGQGTQVTVSS ?
// result high polyreactivity

Would you mind listing polyreactivity (PSR sort gate) for each of the following sequences?
1. QVQLVESGGGLVQAGGSLRLTCAASGSTFAYYAMRWYRQAPGTERELVAVINGITGSTYYADSVKGRFTISRDHAKNTVYLQMNSLKPEDTAVYYCNADYAVVTDEGDYWGQGTQVTVSS
2. QVQLVESGGGLVQAGGSLRLSCAASGSILWYNGLGWYRQAPGKEMELVAAITSGGSTNYADSVKGRFTISRDNAKNTVYLQMNSLKQEDTAVYYCATRHSKYGYEYDYWGQGTQVTVSS
3. QVQLVEYGGGLDQAGGSLRLSCAAYGLTFSPYAMGWYRQAPGKEMELVATITIGGSTKYADSVKGRVTISRDNAKNTVYLQMNSLKPEDTAVYYCAVRSGYVTRRYDYWGQGTQVTVSS

// result
1. low polyreactivity
2. low polyreactivity
3. low polyreactivity

---

Test: yeast display, Sf9 membrane polyspecificity reagent, FACS + sequencing; frameworks hold sequencing errors
result type: polyreactivity (PSR sort gate)

The examples below pair each entry with its known result.
// query State the recorded polyreactivity (PSR sort gate) for this entry: QVQLLESGGGLVQAGGSLRLSCAASGSILYPYAMGWYRQAPGTERELVAVITKSGGGTYYADSVKGRFTISRDNAKNTVYLQMNSLKPEDTAVYYCNRVWLRGAPHMEYWGQGTQVTVSS
// result high polyreactivity

// query Then QVQLVESGGGLVQAGGSLRLSCAASGRTFYKYAMGWYRQAPGKERELVAAISKSGGRTYYADSVKGRFTISRDNAKNTVYLQLNSLKPEDTAVYYCAAEPFIPDQSRYYYWGQGTQVTVSS ?
// result high polyreactivity

// query Then QVQLVESGGGLVQAGGSLRLSCSASGYIFDYNAMGWYIQAPGKERELVAAITFRDGSTYADSVKGRFTISRDNAKNTVYLQMNSLKPEDTAVYYCNRRSQVHSHSKHDYWGQGTQVTVSS ?
// result low polyreactivity

// query Then QVQLVESGGGLVQAGGSLRLSCAASGFTFYRYAMGWYRQAPGKERELVAAISTSGGSTYYADSVKGRFTISRDNAKNTVYLQMNSLKPEDTAVYYCAAELLVYYWGYYYELLDYWGQGTQVSVSS ?
// result high polyreactivity

Others:
// query State the recorded polyreactivity (PSR sort gate) for this entry: QVQLVESGGGLVQAGGSLRLSCAASGRIFDDYAMGWYRQAPGKERELVAAISWSGGSTYYADSVKGRFTISRDNAKNTVYLQMNSLKPEDTAVYYCAAPYHSYKRIGYDYWGQGTQVTVSS
// result low polyreactivity

---

Assay: yeast display, Sf9 membrane polyspecificity reagent, FACS + sequencing; frameworks hold sequencing errors
result type: polyreactivity (PSR sort gate)

The examples below pair each entry with its known result.
// query State the recorded polyreactivity (PSR sort gate) for this entry: QVQLVETAGGLVKAGCSLRLSCAASGRIFYIYAMAWYRQSPGKESELLAAISTGGGGTYYADSVKGRFTISRDNAKNTVYLQMNSLKPEDTAVYYCAATSPLSLDEDYWGQGTQVTVSS
// result high polyreactivity

// query Then QVQLVESGGGLVQAGGSLRLTCAASGNTFNNNAMGWYRQAPGKERELVAAISGSGGSTYYADSVKGRFTISRDNAKNTVYLQMNSLKPEDTAVYYCAVRLVHGGKRYGYWGQGTQVTVSS ?
// result high polyreactivity

// query Then QVQLVESGGGLVQAGGSLRLSCAASGDISYIYAMGWYRQAPGKEREMVADISSSVGNTYYADSVKGRFTISRDNAKNTVYLQMNSLKPEDTAVYYCNADYVQPTESGGTYDYWGQGTQVTVSS ?
// result low polyreactivity

// query Then QVQLVESGGGLVQAGGSLRLSCAASGIILYRYAMGWYRPAPGKERELVAAISRSGGNTYYADSVKGRFTISRDNAKNTVYLQMNSLKPEDTAVYYCAAKPLQGVRRVEYWGQGTQVTVSS ?
// result high polyreactivity

--- query ---
// query State the recorded polyreactivity (PSR sort gate) for this entry: QVQLVESGGGLVQAGGSLRLSCAASGSILVPNAMGWYRQAPGKERELVAGISANGGSTYYADSVKGRFTISRDNANNTVYLQMNSLKPEDTAVYYCNARLYWDWYGDDYWVQGTQVTVSS
// result low polyreactivity
